- target_system: T1, rHuman Erythropoietin R/Fc Chimera (human, UniProt P19235 25-250)
- T1 construct: also called EPO R; EPO R/Fc
- T1 sequence (looked up): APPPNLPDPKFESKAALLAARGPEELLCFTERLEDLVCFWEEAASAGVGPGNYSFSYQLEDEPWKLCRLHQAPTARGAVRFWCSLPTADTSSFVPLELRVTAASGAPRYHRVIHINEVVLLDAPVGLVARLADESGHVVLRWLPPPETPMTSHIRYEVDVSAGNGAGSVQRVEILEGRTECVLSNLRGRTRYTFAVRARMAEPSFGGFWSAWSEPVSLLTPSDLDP
- assay_procedure: ECL multispot (MSD) binding assay; antigen spotted on plate, Fab in solution;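 also: purified Fab bound for 1 h at 20 °C, detected with a TAG-labelled antibody, electrochemiluminescence compared with each well's blank, signal-to-blank ratio of at least 4 scored as hit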
readout: ECL signal
Just the number, please.

As a guide, the following entries are already answered.
[
  {
    "binder": "Fab VH1-46_IGHD6-6*01_IGHJ1*01 S102A/S103P/S104F/H111F (APFF) & L6_IGKJ1*01 S92C (Fab, V domains shown, Tested as Fab made in E. coli: VH cloned into Plasmid A (CH1, His6 and Flag tags), kappa VL into Plasmid C (kappa CL); also called APFF / S92C) VH: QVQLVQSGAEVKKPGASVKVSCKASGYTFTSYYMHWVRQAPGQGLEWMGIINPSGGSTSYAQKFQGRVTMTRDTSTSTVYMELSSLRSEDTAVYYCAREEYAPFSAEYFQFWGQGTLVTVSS VL: EIVLTQSPATLSLSPGERATLSCRASQSVSSYLAWYQQKPGQAPRLLIYDASNRATGIPARFSGSGSGTDFTLTISSLEPEDFAVYYCQQRCNWPPWTFGQGTKVEIKR",
    "ECL signal": 742
  },
  {
    "binder": "Fab VH1-46_IGHD6-6*01_IGHJ1*01 S102A/S103P/S104F/H111F (APFF) & L6_IGKJ1*01 S92V (Fab, V domains shown, Tested as Fab (CH1 with His6/Flag tags from Plasmid A; kappa CL from Plasmid C); also called APFF / S92V) VH: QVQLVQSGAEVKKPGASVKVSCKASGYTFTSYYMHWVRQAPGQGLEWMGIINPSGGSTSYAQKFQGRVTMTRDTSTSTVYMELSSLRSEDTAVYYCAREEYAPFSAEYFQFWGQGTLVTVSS VL: EIVLTQSPATLSLSPGERATLSCRASQSVSSYLAWYQQKPGQAPRLLIYDASNRATGIPARFSGSGSGTDFTLTISSLEPEDFAVYYCQQRVNWPPWTFGQGTKVEIKR",
    "ECL signal": 368
  }
]

Consider the record given below.
## Task Item Fab VH1-46_IGHD6-6*01_IGHJ1*01 S102A/S103P/S104F/H111F (APFF) & L6_IGKJ1*01 S92N (Fab, V domains shown, Tested as Fab (CH1 with His6/Flag tags from Plasmid A; kappa CL from Plasmid C); also called APFF / S92N) VH: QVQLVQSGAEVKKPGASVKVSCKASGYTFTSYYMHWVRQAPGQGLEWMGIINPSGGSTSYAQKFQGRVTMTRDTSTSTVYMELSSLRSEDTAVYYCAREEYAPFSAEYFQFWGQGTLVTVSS VL: EIVLTQSPATLSLSPGERATLSCRASQSVSSYLAWYQQKPGQAPRLLIYDASNRATGIPARFSGSGSGTDFTLTISSLEPEDFAVYYCQQRNNWPPWTFGQGTKVEIKR has what recorded ECL signal?
## Result 314

The values you see were collected from patent US20120316071A1.
